Origin of measurements: patent US20250066503A1

Tgt: T1, human GPC3 (human, UniProt P51654 25-563)
T1 construct: range 25-563; soluble analyte; also called soluble human GPC3; glypican 3
Assay Notes: SPR

>  <Binder>
H0610-G1dh/none-Hi-Kn010G3/L0062-k0 (antibody, V domains shown, one-arm) VH: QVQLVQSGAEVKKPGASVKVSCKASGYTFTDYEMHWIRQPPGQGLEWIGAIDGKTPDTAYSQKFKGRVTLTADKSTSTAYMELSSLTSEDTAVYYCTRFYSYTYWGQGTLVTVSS VL: DIVMTQSPLSLPVTPGEPASISCRSSQSLVHSNRDTYLHWYQQKPGQAPRLLIYKVSNRFSGVPDRFSGSGSGTDFTLKISRVEAEDVGVYYCGQGTQVPYTFGQGTKLEIK

>  <Kd (nM)>
5.28

$$$$
>  <Binder>
GCH065-G1dh/none-Hi-Kn010G3/L0272-k0 (antibody, V domains shown, one-arm) VH: QVQLVQSGAEVKKPGASVTVSCKASGYTFTDYEMHWIRQPPGEGLEWIGAIDGPTPDTAYSEKFKGRVTLTADKSTSTAYMELSSLTSEDTAVYYCTRFYSYTYWGQGTLVTVSS VL: DIVMTQSPLSLPVTPGEPASISCRSSQPLVHSNRQTYLHWYQQKPGQAPRLLIYKVSNRFSGVPDRFSGSGSGTDFTLKISRVEAEDVGVYYCGQGTQVPYTFGQGTKLEIK

>  <Kd (nM)>
0.393

$$$$
>  <Binder>
GCH094-G1dh/none-Hi-Kn010G3/L0270-k0 (antibody, V domains shown, one-arm) VH: QVQLVQSGAEVKKPGASVTVSCKASGYTFTDYEMHWVRQAPGEGLEWMGAIDGETPDTAYSEKFKGRVTLTADKSTSTAYMELSSLTSEDTAVYYCTRFYSYTYWGQGTLVTVSS VL: DIVMTQSPLSLPVTPGEPASISCRSSQSLVHSNRQTYLHWYQQKPGQAPRLLIYKVSNRFSGVPDRFSGSGSGTDFTLKISRVEAEDVGVYYCGQGTQVPYTFGQGTKLEIK

>  <Kd (nM)>
3.6

$$$$
